Property: IC50; scope: individual molecules
# MEASURED_TARGET: Human PD-L1/PD-1 (Homo sapiens, UniProt Q9NZQ7)
# Construct: made in house; host or cells: HEK293T
# Sequence (Q9NZQ7 with tags, fused parts or gaps): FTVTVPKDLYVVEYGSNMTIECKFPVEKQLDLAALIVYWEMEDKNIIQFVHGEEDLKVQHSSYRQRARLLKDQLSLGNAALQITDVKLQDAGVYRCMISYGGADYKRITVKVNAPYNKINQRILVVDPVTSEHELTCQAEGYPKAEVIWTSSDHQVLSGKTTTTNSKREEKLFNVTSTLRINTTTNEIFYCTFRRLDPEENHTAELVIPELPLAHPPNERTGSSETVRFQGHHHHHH
# PROCEDURE_DETAILS: HTRF PD-1-Ig/PD-L1-His binding assay (human PD-L1)
# CONDITION_INFO: cluster symbol; read-out: HTRF IC50 cluster
Positions of bridges follow the written chain, without caps; N, C: chain ends. Non-standard residues stand in square brackets, D forms with d. Residues, ends and D or L forms follow the SMILES beside them. ξ: configuration not given here. NMeNle = CCCC[C@H](NC)C(=O)O; NMeM = CN[C@@H](CCSC)C(=O)O; NMeA = CN[C@@H](C)C(=O)O; Dap = NC[C@H](N)C(=O)O; ξC = NC(CS)C(=O)O; Sar = CNCC(=O)O

molecule="CCCC[C@H]1C(=O)N(C)[C@@H](CCCC)C(=O)N[C@@H](CCCNC(=N)N)C(=O)N[C@H](C(=O)NCC(N)=O)CSCC(=O)N[C@@H](Cc2ccccc2)C(=O)N(C)[C@@H](C)C(=O)N[C@@H](CC(N)=O)C(=O)N2CCC[C@H]2C(=O)N[C@@H](Cc2cnc[nH]2)C(=O)N[C@@H](CCCCN)C(=O)N(C)CC(=O)N[C@@H](Cc2c[nH]c3ccccc23)C(=O)N[C@@H](CO)C(=O)N[C@@H](Cc2c[nH]c3ccccc23)C(=O)N1C [Example 6004] ({CH2CO}-F[NMeA]NPHK[Sar]WSW[NMeNle][NMeNle]RCG-NH2; thioether N-14)" measured_target="Human PD-L1/PD-1 (Homo sapiens, UniProt Q9NZQ7)" endpoint_value="6.76 to 30.3 nM"

According to the records, this molecule CCCC[C@H]1C(=O)N(C)[C@@H](CCSC)C(=O)N[C@@H](C)C(=O)NC(C(=O)NCC(N)=O)CSCC(=O)N[C@@H](Cc2ccc(O)cc2)C(=O)N(C)[C@@H](C)C(=O)N[C@@H](CC(N)=O)C(=O)N2CCC[C@H]2C(=O)N[C@@H](CN)C(=O)N[C@@H](CC(C)C)C(=O)N2CCC[C@H]2C(=O)N[C@@H](Cc2c[nH]c3ccccc23)C(=O)N[C@@H](CO)C(=O)N[C@@H](Cc2c[nH]c3ccccc23)C(=O)N1C (some centres unmarked) [Example 9085] ({CH2CO}-Y[NMeA]NP[Dap]LPWSW[NMeNle][NMeM]A[ξC]G-NH2; thioether N-14) displays IC50 of 0.385 to 6.74 nM

* * *

# MEASURED_TARGET: Human PD-L1/PD-1 (Homo sapiens, UniProt Q9NZQ7)
# Construct: made in house; host or cells: HEK293T
# PROCEDURE_DETAILS: HTRF PD-1-Ig/PD-L1-His binding assay (human PD-L1)
# CONDITION_INFO: cluster symbol; read-out: HTRF IC50 cluster
pIC50: −log10 of the molar value. Positions of bridges follow the written chain, without caps; N, C: chain ends. Non-standard residues stand in square brackets, D forms with d. Residues, ends and D or L forms follow the SMILES beside them. Hyp = O=C(O)[C@@H]1C[C@@H](O)CN1; NMeNle = CCCC[C@H](NC)C(=O)O; NMeA = CN[C@@H](C)C(=O)O; Orn = NCCC[C@H](N)C(=O)O; Sar = CNCC(=O)O
Consider the following compounds and their measured pIC50 readings.

compound="CCCC[C@H]1C(=O)N(C)[C@@H](CCCC)C(=O)N[C@@H](C)C(=O)N[C@H](C(N)=O)CSCC(=O)N[C@@H](Cc2ccc(O)cc2)C(=O)N(C)[C@@H](C)C(=O)N[C@@H](CC(=O)O)C(=O)N2CCC[C@H]2C(=O)N[C@@H](Cc2cnc[nH]2)C(=O)N[C@@H](CCCN)C(=O)N2C[C@H](O)C[C@H]2C(=O)N[C@@H](Cc2c[nH]c3ccccc23)C(=O)N[C@@H](CO)C(=O)N[C@@H](Cc2c[nH]c3ccccc23)C(=O)N1C [Example 1231] ({CH2CO}-Y[NMeA]DPH[Orn][Hyp]WSW[NMeNle][NMeNle]AC-NH2; thioether N-14)" test_readout=pIC50 endpoint_value="8.17 to 9.41"
compound="CCCC[C@H]1C(=O)N(C)[C@@H](CCCC)C(=O)N[C@@H](CO)C(=O)N[C@H](C(=O)NCC(N)=O)CSCC(=O)N[C@@H](Cc2ccccc2)C(=O)N(C)[C@@H](C)C(=O)N[C@@H](CC(N)=O)C(=O)N2CCC[C@H]2C(=O)N[C@@H](Cc2cnc[nH]2)C(=O)N[C@@H](CC(C)C)C(=O)N(C)CC(=O)N[C@@H](Cc2c[nH]c3ccccc23)C(=O)N[C@@H](CO)C(=O)N[C@@H](Cc2c[nH]c3ccccc23)C(=O)N1C [Example 10001] ({CH2CO}-F[NMeA]NPHL[Sar]WSW[NMeNle][NMeNle]SCG-NH2; thioether N-14)" test_readout=pIC50 endpoint_value="7.52 to 8.17"
compound="CCCC[C@H]1C(=O)N(C)[C@@H](CCCC)C(=O)N[C@@H](CO)C(=O)NC(C(=O)NCC(N)=O)CSCC(=O)N[C@@H](Cc2ccc(O)cc2)C(=O)N(C)[C@@H](C)C(=O)N[C@@H](CC(N)=O)C(=O)N2CCC[C@H]2C(=O)N[C@@H](Cc2cnc[nH]2)C(=O)N[C@@H](CC(C)C)C(=O)N2C[C@H](O)C[C@H]2C(=O)N[C@@H](Cc2c[nH]c3ccccc23)C(=O)N[C@@H](CO)C(=O)N[C@@H](Cc2c[nH]c3ccccc23)C(=O)N1C (stereo partly shown)" test_readout=pIC50 endpoint_value="7.52 to 8.17"

Attention now turns to another entry.
The compound "CCCC[C@H]1C(=O)N(C)[C@@H](CCCC)C(=O)N[C@@H](CCCN)C(=O)N[C@H](C(=O)NCC(N)=O)CSCC(=O)N[C@@H](Cc2ccc(O)cc2)C(=O)N2CC[C@H]2C(=O)N[C@@H](CC(N)=O)C(=O)N2CCC[C@H]2C(=O)N[C@@H](Cc2cnc[nH]2)C(=O)N[C@@H](CC(C)C)C(=O)N2C[C@H](O)C[C@H]2C(=O)N[C@@H](Cc2c[nH]c3ccccc23)C(=O)N[C@@H](CO)C(=O)N[C@@H](Cc2c[nH]c3ccccc23)C(=O)N1C" showed pIC50 equal to 7.52 to 8.17

* * *

# MEASURED_TARGET: Human PD-L1/PD-1 (Homo sapiens)
# Construct: made in house; host or cells: HEK293T
# PROCEDURE_DETAILS: HTRF PD-1-Ig/PD-L1-His binding assay (human PD-L1)
# CONDITION_INFO: read-out: HTRF IC50 value
Positions of bridges follow the written chain, without caps; N, C: chain ends. Non-standard residues stand in square brackets, D forms with d. Residues, ends and D or L forms follow the SMILES beside them. Trp(5-OH) = N[C@@H](Cc1c[nH]c2ccc(O)cc12)C(=O)O; NMeF = CN[C@@H](Cc1ccccc1)C(=O)O; NMeNle = CCCC[C@H](NC)C(=O)O; Sar = CNCC(=O)O
Recorded IC50, one value per entry.
Kindly format the answer as number then unit.

compound="CCCC[C@H]1C(=O)N(C)CC(=O)N[C@@H](CC(=O)O)C(=O)N[C@@H](C(C)C)C(=O)N(C)[C@@H](Cc2ccccc2)C(=O)N[C@@H](Cc2ccc(O)cc2)C(=O)N(C)CC(=O)N[C@@H](Cc2c[nH]c3ccc(O)cc23)C(=O)N[C@@H](Cc2ccc(O)cc2)C(=O)N[C@@H](CC(C)C)C(=O)N[C@H](C(=O)NCC(N)=O)CSCC(=O)N[C@@H](Cc2ccccc2)C(=O)N(C)[C@@H](Cc2ccccc2)C(=O)N1C [Example 3147] ({CH2CO}-F[NMeF][NMeNle][Sar]DV[NMeF]Y[Sar][Trp(5-OH)]YLCG-NH2; thioether N-13)" endpoint_value="0.75 µM"

Please fill in: IC50 reported for CCCC[C@H]1C(=O)N(C)[C@@H](CCCC)C(=O)N[C@@H](CCCNC(=N)N)C(=O)NC(C(=O)NCC(N)=O)CSCC(=O)N[C@@H](Cc2ccccc2)C(=O)N(C)[C@@H](C)C(=O)N[C@@H](CC(N)=O)C(=O)N2CCC[C@H]2C(=O)N[C@@H](Cc2cnc[nH]2)C(=O)N[C@@H](CC(C)C)C(=O)N[C@@H](CCNC(=O)C2CCCCC2)C(=O)N[C@@H](Cc2c[nH]c3ccccc23)C(=O)N[C@@H](CO)C(=O)N[C@@H](Cc2c[nH]c3ccccc23)C(=O)N1C (some centres unmarked) [Example 1021] = 0.18 µM

* * *

# pIC50 per entry
# MEASURED_TARGET: Human PD-L1/PD-1 (Homo sapiens, UniProt Q9NZQ7)
# Construct: made in house; host or cells: HEK293T
# PROCEDURE_DETAILS: HTRF PD-1-Ig/PD-L1-His binding assay (human PD-L1)
# CONDITION_INFO: cluster symbol; read-out: HTRF IC50 cluster
pIC50: −log10 of the molar value. Positions of bridges follow the written chain, without caps; N, C: chain ends. Non-standard residues stand in square brackets, D forms with d. Residues, ends and D or L forms follow the SMILES beside them. ξ: configuration not given here. Bta = N[C@@H](Cc1csc2ccccc12)C(=O)O; Hyp = O=C(O)[C@@H]1C[C@@H](O)CN1; NMeD = CN[C@@H](CC(=O)O)C(=O)O; NMeNle = CCCC[C@H](NC)C(=O)O; NMeA = CN[C@@H](C)C(=O)O; ξC = NC(CS)C(=O)O

compound="CCCC[C@H]1C(=O)N(C)[C@@H](CCCC)C(=O)N[C@@H](CCCNC(=N)N)C(=O)NC(C(=O)NCC(N)=O)CSCC(=O)N[C@@H](Cc2ccc(O)cc2)C(=O)N(C)[C@@H](C)C(=O)N[C@@H](CC(N)=O)C(=O)N2CCC[C@H]2C(=O)N[C@@H](Cc2cnc[nH]2)C(=O)N[C@@H](CO)C(=O)N2C[C@H](O)C[C@H]2C(=O)N[C@@H](Cc2c[nH]c3ccccc23)C(=O)N[C@@H](CO)C(=O)N[C@@H](Cc2csc3ccccc23)C(=O)N1C (some centres unmarked) [Example 9070] ({CH2CO}-Y[NMeA]NPHS[Hyp]WS[Bta][NMeNle][NMeNle]R[ξC]G-NH2; thioether N-14)" measured_target="Human PD-L1/PD-1 (Homo sapiens, UniProt Q9NZQ7)" test_readout=pIC50 endpoint_value="7.52 to 8.17"

Please look at the following compound next.
pIC50 in this record for CCCC[C@H]1C(=O)N(C)[C@@H](CCCC)C(=O)N[C@@H](CCCNC(=N)N)C(=O)N[C@H](C(=O)NCC(N)=O)CSCC(=O)N[C@@H](Cc2ccc(O)cc2)C(=O)N(C)[C@@H](CC(=O)O)C(=O)N[C@@H](CC(N)=O)C(=O)N2CCC[C@H]2C(=O)N[C@@H](Cc2cnc[nH]2)C(=O)N[C@@H](CC(C)C)C(=O)N2CCC[C@H]2C(=O)N[C@@H](Cc2c[nH]c3ccccc23)C(=O)N[C@@H](CO)C(=O)N[C@@H](Cc2csc3ccccc23)C(=O)N1C [Example 1190] ({CH2CO}-Y[NMeD]NPHLPWS[Bta][NMeNle][NMeNle]RCG-NH2; thioether N-14) : < 7.52
